FYI, the data here is from ChEMBL document CHEMBL4689842.

Exercise: state measured Growth Rate for each of the compounds provided.
Test system: HEK-293T
method description: Incucyte cell viability with HEK293T; also: filed as whole numbers so only -1 and 0 and 1 occur
Format: toxicity, cell-based
experimental conditions: human, 12 h, 10 µM, compound concentration 10 uM, replicate number 2, timepoint 12 hours
Answer field: number only, no words.

Give the reported value of Growth Rate for this record: CS(=O)(=O)c1cccc(NC(=O)N(Cc2ccc(C(=O)Nc3nn[nH]n3)cc2)c2ccc(C3CCCCC3)cc2)c1
0

Give the reported value of Growth Rate for this record: CC[C@@H]1[C@H](F)C(=O)N[C@@H]1COc1nccc2cc(C(N)=O)c(OC)cc12
1

Give the reported value of Growth Rate for this record: CCCCN1CCC(COC(=O)c2cc(Cl)c(N)c3c2OCCO3)CC1.Cl
1

Give the reported value of Growth Rate for this record: N#CC(Cc1ccc(O)cc1)c1ccc(O)cc1 (stereo not drawn)
1

Give the reported value of Growth Rate for this record: Cn1cncc1[C@@](O)(COc1ccc(C#N)cc1-c1ccc(OC(F)(F)F)cc1)c1ccc(C#N)cc1
0

Give the reported value of Growth Rate for this record: Cn1cnc2c(F)c(Nc3ccc(Br)cc3Cl)c(C(=O)NOCCO)cc21
1

Give the reported value of Growth Rate for this record: CNCCC(Oc1ccc(C(F)(F)F)cc1)c1ccccc1.Cl (stereo not drawn) [FLUOXETINE HYDROCHLORIDE]
1

Give the reported value of Growth Rate for this record: O=C(NCc1ncc(C(F)(F)F)cc1Cl)c1ccc2c(c1)C1(CCS(=O)(=O)CC1)[C@H](C1CC1)N2S(=O)(=O)c1ccc(F)cc1
0

* * *

Exercise: state measured Population Membrane Permeable-Phenotype (%) for each of the compounds provided.
System: HEK-293T
method description: Multiplex assay against HEK293T
Format: toxicity, cell-based
experimental conditions: human, 12 h, 1 µM, compound concentration 1 uM, replicate 1
Respond numerically; units are % and should not be typed.

Give the reported value of Population Membrane Permeable-Phenotype (%) for this record: CCN(CC)CCCCNc1ncc2cc(-c3cc(OC)cc(OC)c3)c(NC(=O)NC(C)(C)C)nc2n1 [PD-173074]
15

Give the reported value of Population Membrane Permeable-Phenotype (%) for this record: Cl.N#Cc1ccc2[nH]cc(CCCCN3CCN(c4ccc5oc(C(N)=O)cc5c4)CC3)c2c1 [VILAZODONE HYDROCHLORIDE]
1

Give the reported value of Population Membrane Permeable-Phenotype (%) for this record: CN1CCCC(n2nc(Cc3ccc(Cl)cc3)c3ccccc3c2=O)CC1.Cl (configuration not stated) [AZELASTINE HYDROCHLORIDE]
3

Give the reported value of Population Membrane Permeable-Phenotype (%) for this record: CN1CCC[C@@H]1CCO[C@](C)(c1ccccc1)c1ccc(Cl)cc1.O=C(O)/C=C/C(=O)O [CLEMASTINE FUMARATE]
5

Give the reported value of Population Membrane Permeable-Phenotype (%) for this record: Cc1[nH]c(/C=C2\C(=O)Nc3ccc(S(=O)(=O)N(C)c4cccc(Cl)c4)cc32)c(C)c1C(=O)N1CCN(C)CC1
7

Give the reported value of Population Membrane Permeable-Phenotype (%) for this record: C[C@@]1(C(=O)Nc2ccc(F)nc2)CCCN1c1nc(Nc2cc(C3CC3)n[nH]2)c2cccn2n1 [BMS-754807]
7

Give the reported value of Population Membrane Permeable-Phenotype (%) for this record: Nc1c(C(=O)NCc2ccc(C(=O)NCCCC3CCCCC3)cc2)cnn1-c1ccccc1 [SR-318]
1

* * *

System: U2OS
method description: Multiplex assay against U2OS
Assay type: toxicity, cell-based
experimental conditions: human, 48 h, 10 µM, compound concentration 10 uM, replicate 1
Decide using Population Normal (%): a value greater than or equal to 90% is label 1, a smaller one is label 0.

# check: Population Normal (%) of CN(C)C(=O)N[C@H]1CC[C@H](CCN2CCN(c3cccc(Cl)c3Cl)CC2)CC1.Cl [CARIPRAZINE HYDROCHLORIDE] is greater than or equal to 90%
label 0

# check: Population Normal (%) of CN(C)C(=O)/C(C#N)=C/c1ccc(-c2nc3cnc4[nH]ccc4c3n2C2CCCCC2)o1 is greater than or equal to 90%
label 0

# check: Population Normal (%) of CC(C)NCC(O)COc1ccc(CCOCC2CC2)cc1.Cl (configuration not stated) [BETAXOLOL HYDROCHLORIDE] is greater than or equal to 90%
label 1

# check: Population Normal (%) of CCn1c(=O)c(-c2ccc(Cl)cc2Cl)cc2cnc(Nc3ccc(N4CCNCC4)c(F)c3)nc21 is greater than or equal to 90%
label 0

# check: Population Normal (%) of COc1cc(-n2cnc3cc(-c4ccc(Cl)cc4)sc3c2=O)ccc1OCCN1CCCC1 is greater than or equal to 90%
label 0

* * *

Tested on: HEK-293T
method description: Multiplex assay against HEK293T
Format: toxicity, cell-based
experimental conditions: human, 12 h, 1 µM, compound concentration 1 uM, replicate 1
Exercise: state measured Population Fragmented Nuclei (%) for each of the molecules provided.
Respond numerically; units are % and should not be typed.

Give the reported value of Population Fragmented Nuclei (%) for this record: CC(C)NCC(O)COc1ccc(CCOCC2CC2)cc1.Cl (stereo unspecified) [BETAXOLOL HYDROCHLORIDE]
7

Give the reported value of Population Fragmented Nuclei (%) for this record: Cc1nc(-c2ccc(-c3ccc(C(=O)N4CCc5cc6c(cc54)C4(CCN(C)CC4)CO6)cc3)c(C)c2)no1 [SB-224289]
17

Give the reported value of Population Fragmented Nuclei (%) for this record: NC(=O)Nc1cc(-c2cccc(F)c2)sc1C(=O)N[C@H]1CCCNC1 [AZD-7762]
18

Give the reported value of Population Fragmented Nuclei (%) for this record: C[C@@]1(C(=O)Nc2ccc(F)nc2)CCCN1c1nc(Nc2cc(C3CC3)n[nH]2)c2cccn2n1 [BMS-754807]
19

Give the reported value of Population Fragmented Nuclei (%) for this record: C=CC(=O)Nc1ccc2ncnc(Nc3ccc(OCc4cccc(F)c4)c(Cl)c3)c2c1.Cc1ccc(S(=O)(=O)O)cc1
11

Give the reported value of Population Fragmented Nuclei (%) for this record: C=CC(=O)Nc1cccc(C(=O)Nc2ccc(Nc3cc(-c4[nH]c(SC)nc4C)ccn3)cc2)c1
16

Give the reported value of Population Fragmented Nuclei (%) for this record: Cc1nc(Nc2n[nH]c3c2CN(C(=O)N[C@H](CN(C)C)c2ccccc2)C3(C)C)c2sccc2n1 [PF-03758309]
12

Give the reported value of Population Fragmented Nuclei (%) for this record: C[C@@H](NCCCc1cccc(C(F)(F)F)c1)c1cccc2ccccc12.Cl [CINACALCET HYDROCHLORIDE]
4

Give the reported value of Population Fragmented Nuclei (%) for this record: CN1CCCC(n2nc(Cc3ccc(Cl)cc3)c3ccccc3c2=O)CC1.Cl (stereo unspecified) [AZELASTINE HYDROCHLORIDE]
8

Give the reported value of Population Fragmented Nuclei (%) for this record: O=C1NCN(c2ccccc2)C12CCN(CCCOc1ccc(F)cc1)CC2 [SPIRAMIDE]
15

Give the reported value of Population Fragmented Nuclei (%) for this record: C=CC(=O)Nc1cc2c(Nc3ccc(F)c(Cl)c3)ncnc2cc1OCCCN1CCOCC1.Cl.Cl [CANERTINIB DIHYDROCHLORIDE]
22

Give the reported value of Population Fragmented Nuclei (%) for this record: CNc1nc(NCc2ccc(NS(C)(=O)=O)cc2Cl)cc(-c2ccccn2)n1
18

Give the reported value of Population Fragmented Nuclei (%) for this record: Cc1csc2c(N[C@@H](C)CN3CCN(S(=O)(=O)c4ccc(Cl)c(Cl)c4)CC3)ncnc12
12

Give the reported value of Population Fragmented Nuclei (%) for this record: CCN(CC)CCCCNc1ncc2cc(-c3cc(OC)cc(OC)c3)c(NC(=O)NC(C)(C)C)nc2n1 [PD-173074]
79

Give the reported value of Population Fragmented Nuclei (%) for this record: Cc1nc(-c2cn3c(n2)-c2ccc(-c4cnn(C(C)(C)C(N)=O)c4)cc2OCC3)n(C(C)C)n1 [TASELISIB]
14

Give the reported value of Population Fragmented Nuclei (%) for this record: CN1CCC[C@@H]1CCO[C@](C)(c1ccccc1)c1ccc(Cl)cc1.O=C(O)/C=C/C(=O)O [CLEMASTINE FUMARATE]
10

Give the reported value of Population Fragmented Nuclei (%) for this record: CN(C)C(=O)N[C@H]1CC[C@H](CCN2CCN(c3cccc(Cl)c3Cl)CC2)CC1.Cl [CARIPRAZINE HYDROCHLORIDE]
12

Give the reported value of Population Fragmented Nuclei (%) for this record: COc1cc2nccc(Oc3ccc(NC(=O)Nc4cc(C)on4)c(Cl)c3)c2cc1OC.O
14

Give the reported value of Population Fragmented Nuclei (%) for this record: Cn1cc(-c2[nH]c3cc(NC(=O)[C@H](N)C4CCCCC4)cc4c3c2C=NNC4=O)cn1
10

Give the reported value of Population Fragmented Nuclei (%) for this record: Cc1cc(C)cc(-c2cnc3cc(Cl)c(-c4cccc(O)c4)cc3c2OCCCN)c1
11

Give the reported value of Population Fragmented Nuclei (%) for this record: OC1(c2ccc(Cl)cc2)CCN(Cc2c[nH]c3ccccc23)CC1
20

Give the reported value of Population Fragmented Nuclei (%) for this record: Cc1c(-c2ccc(O)cc2)n(Cc2ccc(OCCN3CCCCCC3)cc2)c2ccc(O)cc12 [BAZEDOXIFENE]
15

Give the reported value of Population Fragmented Nuclei (%) for this record: c1cn2cc(-c3ccc4cn[nH]c4c3)nc(Nc3ccc(N4CCOCC4)cc3)c2n1 [ENTOSPLETINIB]
8

Give the reported value of Population Fragmented Nuclei (%) for this record: CN(C)CC#Cc1ccc(OCCCc2sc(N3CCc4cccc(C(=O)Nc5nc6ccccc6s5)c4C3)nc2C(=O)O)c(F)c1 [A-1155463]
12

Give the reported value of Population Fragmented Nuclei (%) for this record: COc1ncc(-c2ccc3nccc(-c4ccnnc4)c3c2)cc1NS(=O)(=O)c1ccc(F)cc1F [OMIPALISIB]
17
